All values here come from the METLIN SMRT retention time set (Domingo-Almenara et al. 2019).

Experiment: gradient 5% acetonitrile 3 min, to 50% in 2 min, to 85% in 15 min, held 3 min, 100 µL/min
Settings: column: Zorbax Extend-C18 2.1 x 50 mm; eluents: water / acetonitrile, 0.1% formic acid
quantity_measured: RP-LC retention time (s)

Some entries whose results are on file:
{"molecule": "O=C(NCC1CCOCC1)Nc1ccc(Cl)cc1", "unit_info": "s", "RP-LC retention time": 705}
{"molecule": "CC(=O)c1ccc(NC(=O)Cn2c(-c3cnccn3)nc(C)c(C)c2=O)cc1", "unit_info": "s", "RP-LC retention time": 680}
{"molecule": "O=C(c1cc(-c2cccnc2)n[nH]1)N1CCCC(C(=O)N2CCN(c3ccc(Cl)cc3)CC2)C1 (stereo unspecified)", "unit_info": "s", "RP-LC retention time": 685}
{"molecule": "C=CCn1nc2ccc(S(=O)(=O)N3CCCC3)cn2c1=O", "unit_info": "s", "RP-LC retention time": 706}
{"molecule": "Cc1cc(C)cc(S(=O)(=O)N2CCC(CN3CCCCCC3)CC2)c1", "unit_info": "s", "RP-LC retention time": 708}

P. Brc1ccc(CSc2nnc(-c3ccccc3)o2)cc1
Q. O=C(NCCCN1CCOC(c2ccccc2)C1)c1ccc(Cl)cc1Cl (stereo unspecified)
## Task Among P and Q , which shows a numerically higher RP-LC retention time result? Indicate which entry you chose by stating its label.
## Result P
(P: 1180 s, Q: 599 s)
